System: T98G GBM cell line
Assay: Cell viability assay (Alamar Blue, 7 days), T98G
Format: cell-based, human
Conditions: Homo sapiens, T98G, 168 h, MGMT (+), Alamar Blue, error SEM, n ≥ 3, read-out: Seven-day IC50, T98G
ASSAY_METRIC: IC50 (µM)
Give bare numbers, in µM.

Recorded IC50, per entry:
[[record]]
compound = "NC(=O)c1ncn2c(=O)n(CCCl)nnc12 [MTZ, reference compound]"
assay_metric = "IC50"
observed_measurement = 85

[[record]]
compound = "CC#CCn1nnc2c(C(N)=O)ncn2c1=O"
assay_metric = "IC50"
observed_measurement = 110

[[record]]
compound = "NC(=O)c1ncn2c(=O)n(CNC(=O)c3ccccc3)nnc12"
assay_metric = "IC50"
observed_measurement = 580


Now for the compound whose IC50 we want.
Query string: # input compound: C#CCn1nnc2c(C(N)=O)ncn2c1=O ; wanted: its IC50
Result string: 77

====

Test: Hydrolytic stability studies
Format: physicochemical
Conditions: PBS, pH 7.4, 37° C.; HPLC
Doc: threshold 30% (exclusive). Items with Hydrolytic stability: percentage of prodrug remaining after 2 hours beneath it return label 1; others return label 0.

[[record]]
compound = "CC#CCn1nnc2c(C(=O)N(C)C)ncn2c1=O [TABZ]"
classification = "label 0"

[[record]]
compound = "C#CCn1nnc2c(C(N)=O)ncn2c1=O [Compound 10]"
classification = "label 1"

[[record]]
compound = "C#CCn1nnc2c(C(=O)N(C)C)ncn2c1=O [Compound 17]"
classification = "label 1"

[[record]]
compound = "Cn1nnc2c(C(N)=O)ncn2c1=O [TMZ, temozolomide, reference compound]"
classification = "label 0"


Query string: Does the reported Hydrolytic stability: percentage of prodrug remaining after 2 hours of the following compound sit strictly below 30%? C#CCn1nnc2c(C(=O)NC)ncn2c1=O [Compound 16]
Result string: label 1

====

Test system: U87 GBM cell line
Assay: Cell viability assay (Alamar Blue, 7 days), U87
Type: cell-based, human
Settings: MGMT (−), Alamar Blue, error SEM, n ≥ 3, read-out: Seven-day IC50, U87
ASSAY_METRIC: pIC50
One number for each entry, as −log10 of the molar value.

Query string: # input molecule: NC(=O)c1ncn2c(=O)n(COc3ccccc3)nnc12 ; wanted: its pIC50
Result string: 4.68

====

Give half-life at 100 μM for every item shown.
Assay: Hydrolytic stability studies
Assay type: physicochemical
Details: PBS, pH 7.4, calculated from hydrolytic stability data, 37° C., read-out: Half-life, pH 7.4

Recorded half-life at 100 μM, per entry:
[[record]]
compound = "Cn1nnc2c(C(N)=O)ncn2c1=O [TMZ, temozolomide, reference compound]"
assay_metric = "half-life at 100 μM"
observed_measurement = "~1.5 h"

[[record]]
compound = "C#CCn1nnc2c(Cl)ncn2c1=O [CPZ]"
assay_metric = "half-life at 100 μM"
observed_measurement = "1.2 h"


Now for the compound whose half-life at 100 μM we want.
Query string: # input compound: C#CCn1nnc2c(C(N)=O)ncn2c1=O [Compound 10] ; wanted: its half-life at 100 μM
Result string: ~0.5 h

====

Give Stability (2 h, no MLM) for every item shown.
Test: Hepatic metabolism: stability in mouse liver microsomes
Format: in vitro ADME
Settings: percentage remaining; microsomes replaced with PBS
Give bare numbers, in %.

Recorded Stability (2 h, no MLM), per entry:
[[record]]
molecule = "CC#CCn1nnc2c(C(N)=O)ncn2c1=O"
measurement_unit = "%"
observed_measurement = 85

[[record]]
molecule = "CN(C)C(=O)c1ncn2c(=O)n(C)nnc12 [N,N-DiMe-TMZ, reference compound]"
measurement_unit = "%"
observed_measurement = 92

[[record]]
molecule = "Cn1nnc2c(C(N)=O)ncn2c1=O [TMZ, temozolomide, reference compound]"
measurement_unit = "%"
observed_measurement = 92


Now for the molecule whose Stability (2 h, no MLM) we want.
Query string: # input molecule: CC#CCn1nnc2c(C(=O)N(C)C)ncn2c1=O ; wanted: its Stability (2 h, no MLM)
Result string: 87

====

Test: Maximum tolerated dose / tolerability in mice
Type: in vivo
Details: female, C57BL/6, mouse, in vivo, ip, 66 mg/kg, once per day over 5 days, intraperitoneal, read-out: MTD, I.P.
Give MTD at 5 days for every item shown.
Answers are plain numbers, in mg/kg.

Please give MTD at 5 days for each item listed below.
1. C#CCn1nnc2c(Cl)ncn2c1=O
2. Cn1nnc2c(C(N)=O)ncn2c1=O [TMZ, temozolomide, reference compound]
3. CC#CCn1nnc2c(C(=O)N(C)C)ncn2c1=O

Result string:
1: 66; 2: 66; 3: 66

====

Tested on: T98G GBM cell line
Assay: Cell viability assay (Alamar Blue, 7 days), T98G
Format: cell-based, human
Conditions: Homo sapiens, T98G, 168 h, MGMT (+), Alamar Blue, error SEM, n ≥ 3, read-out: Seven-day IC50, T98G
ASSAY_METRIC: IC50

[[record]]
smiles_notation = "CCn1nnc2c(C(N)=O)ncn2c1=O"
observed_measurement = "> 1 mM"

[[record]]
smiles_notation = "CC(C)n1nnc2c(C(N)=O)ncn2c1=O"
observed_measurement = "> 1 mM"

[[record]]
smiles_notation = "COc1ccc(-n2nnc3c(C(N)=O)ncn3c2=O)cc1"
observed_measurement = "< 0.1 mM"

[[record]]
smiles_notation = "CC(C)(C)Cn1nnc2c(C(N)=O)ncn2c1=O"
observed_measurement = "> 1 mM"

[[record]]
smiles_notation = "C=CCn1nnc2c(C(N)=O)ncn2c1=O"
observed_measurement = "0.32 mM"


Now for the compound whose IC50 we want.
Query string: # input compound: CC(C)(C)n1nnc2c(C(N)=O)ncn2c1=O ; wanted: its IC50
Result string: > 1 mM

====

Test system: T98G GBM cell line
Test: Cell viability assay (Alamar Blue, 7 days), T98G
Format: cell-based, human
Conditions: Homo sapiens, T98G, 168 h, MGMT (+), Alamar Blue, error SEM, n ≥ 3, read-out: Seven-day IC50, T98G
ASSAY_METRIC: IC50

[[record]]
molecule = "CCCn1nnc2c(C(N)=O)ncn2c1=O [Compound 3]"
observed_measurement = "> 1000 µM"

[[record]]
molecule = "NC(=O)c1ncn2c(=O)[nH]nnc12 [Compound 1]"
observed_measurement = "> 1000 µM"

[[record]]
molecule = "Cn1nnc2c(C(N)=O)ncn2c1=O [TMZ, temozolomide, reference compound]"
observed_measurement = "> 550 µM"


Now for the molecule whose IC50 we want.
Query string: # input molecule: NC(=O)c1ncn2c(=O)n(COc3ccccc3)nnc12 [Compound 11] ; wanted: its IC50
Result string: < 40 µM
